FYI, the data here is from ChEMBL document CHEMBL1201862.

test system: OVCAR-3; experiment: NCI tumour cell line growth inhibition, 48 h
Activity calls are given as the source filed them. Rule as the data show it: active = GI50 up to about 1.1 µM and inactive = higher.
Measurement Label: GI50

Some solved cases for reference:
COc1cc(OC)nc(Nc2c(C#N)c3nc4ccccc4n3c3ccccc23)n1: 31.3 µM (inactive)
C=C1C(=O)O[C@H]2C[C@@H](C)[C@@H]3CC(=O)OC[C@@]3(C)CC12 (some centres not stated): 28 µM (inactive)
CCNCC(=O)Nc1ccc2c(c1)C(=O)c1ccc(NC(=O)CNCC)cc1C2=O: 2.59 µM (inactive)
NC(=O)CSc1nc2ccccc2c(=O)n1N: > 100 µM (inactive)
CC(C)N1C=[N+](C(C)C)CC1: > 100 µM (inactive)
N#CC1=C(N)OC2=C(CCCc3ccccc32)C1c1ccc([N+](=O)[O-])cc1 (configuration not stated): 13.5 µM (inactive)

Pending compound:
Prompt: Please give the measured GI50 for this compound: COc1ccc(/C=C2\Cc3ccccc3C2=O)cc1OC
Completion: > 100 µM (inactive)

====

test system: NCI-H23; assay: NCI tumour cell line growth inhibition, 48 h
Activity calls are given as the source filed them. Cut-off read from the data, not from the text of the source: active = GI50 up to about 1.1 µM and inactive = higher.
Bench note: report the call from t = active, f = inactive

# example entries with known answers
CC(=O)O[C@H]1CC[C@H]2[C@@H]3CCC4=C(C(=O)C=CC4(C)OC(C)=O)[C@H]3CC[C@]12C (some centres undefined): f
NC(=O)c1ncn2c1CNC(=O)C2: f
CCCn1c2ccccc2c2ccc3c(c21)C(=O)C=CC3=O: f
COc1cc(/C=C\c2ccccc2)cc(OC)c1OC: f

Prompt: For COc1ccc(/C=C/C(=O)C(C)(C)C)cc1OC , what call appears in the results of this test?
Completion: f

Prompt: Now this one: Cc1ccc(C(=O)Nc2ccc(CP(=O)(O)O)cc2)cc1NC(=O)Nc1cc(C(=O)Nc2ccc(CP(=O)(O)O)cc2)ccc1C
Completion: f

Prompt: And the next one, CS(=O)(=O)NC12CCC(c3ccccc31)c1ccccc12 ?
Completion: f

Prompt: Another compound: CCn1ncc(N=O)c1N
Completion: f

Prompt: Note, next up: C[n+]1c(-c2ccccc2)cc2/c(=C\c3ccc([N+](=O)[O-])cc3)c3ccccc3n21
Completion: f

Prompt: Also check CC(C)=CCC/C(C)=C/CC/C(C)=C/CCC1(C)CCC([C@H](C)C(=O)O)OO1.CC1=C(CC/C(C)=C/CCC2(C)CCC([C@H](C)C(=O)O)OO2)C(C)(C)CCC1 (some centres undefined)
Completion: f

Prompt: Lookup Cc1c2ccccc2c(CO)c2cc(F)c3ccccc3c12
Completion: f

====

test system: 786-0; experiment: NCI tumour cell line growth inhibition, 48 h
Active and inactive are the calls of the source. Rule as the data show it: active = GI50 up to about 1.1 µM and inactive = higher.
As shown below, each of these compounds has a reported GI50 value.

O=C(Cc1ccccc1)NN1C(=O)/C(=C\c2cccc([N+](=O)[O-])c2)S/C1=N\c1ccccc1: > 100 µM (inactive)

Prompt: Given the compound c1csc(-c2ccc(-c3cccc4nsnc34)s2)c1 , what is its reported GI50?
Completion: 39.5 µM (inactive)

====

system: MDA-N; assay: NCI tumour cell line growth inhibition, 48 h
The source made the active and inactive calls. No stated cut-off is given here; in the data, active = GI50 up to about 1.1 µM and inactive = higher.
Parameter: GI50. Scope: all listed entries.

O=C1OCN(c2ccccc2)C12CCN(Cc1ccccc1)CC2: 23.6 µM (inactive)
COC(=O)c1ccc(C(=O)NC(Cc2ccc(Oc3cc(CC(NC(=O)c4ccccc4C(=O)OC)C(=O)OC)ccc3OC)cc2)C(=O)OC)cc1 (stereo not given): > 100 µM (inactive)
CC(=O)c1c(C)cc2cccc(OC3OC(CO)C(O)C(O)C3O)c2c1O.CC1OC(O)C(O)C(O)C1O (stereo not given): > 100 µM (inactive)
C(=N\c1ccc(-c2nc3ccccc3o2)cc1)/c1ccco1: 64 µM (inactive)

Moving on to the next compound.
Prompt: # get_value(readout= GI50, system= MDA-N) for N=C(N)N/N=C/c1cnn(C(=N)N)c1
Completion: > 100 µM (inactive)

====

system: HT-29; assay: NCI tumour cell line growth inhibition, 48 h
Calls of active or inactive are those of the source. Cut-off read from the data, not from the text of the source: active = GI50 up to about 1.1 µM and inactive = higher.
Respond using exactly one of the listed classes: active, inactive

These recorded examples may help you get a feel for the data.
COc1cc2c(cc1OC)[C@H]1CN3CCC[C@H]3C=C1c1ccc(OC)c(O)c1-2: active
COC(=O)C1=C(O)C(C(=O)OC)[C@]2(O)[C@H](C(=O)OC)[C@H]1C[C@@H](c1ccc(C(F)(F)F)cc1)[C@H]2C(=O)OC (some centres undefined): inactive
N#C/C(=C\c1cccc(Br)c1)c1nc2ccccc2c(=O)[nH]1: inactive

Pending compound:
Prompt: Which outcome was entered for the compound COc1cc2c(cc1O)CCN(C)[C@H]2Cc1ccc(Oc2c(O)c(OC)cc3c2C[C@H]2c4c(c(OC)c(OC)c(OC)c4-3)CCN2C)cc1 [THALIFABERIDINE] in this test?
Completion: inactive

====

Recorded GI50 values for a group of compounds are listed next.
test system: SW-620; experiment: NCI tumour cell line growth inhibition, 48 h
Active and inactive are the calls of the source. No stated cut-off is given here; in the data, active = GI50 up to about 1.1 µM and inactive = higher.

CCN(CC)c1ccc2nc3ccc(/N=N/c4c(O)ccc5ccccc45)cc3[n+](-c3ccccc3)c2c1: > 100 µM (inactive)

Prompt: Please give the measured GI50 for this compound: Cn1c(CBr)nc2c1C(=O)c1nc(CBr)[nH]c(=O)c1C2=O
Completion: > 100 µM (inactive)

Prompt: Same lookup for C/C(=C/CC[C@]1(CO)CC[C@]2(C)[C@H](CC[C@@H]3[C@@]4(C)CC[C@H](OC5OC(CO)C(O)C(O)C5OC5OC(CO)C(O)C(O)C5O)C(C)(C)[C@@H]4CC[C@]32C)[C@H]1O)CO (stereo not given in full) , please.
Completion: > 100 µM (inactive)

Prompt: # repeat for Cc1cccc(C)c1NC(=O)C(=O)C(c1ccccc1Cl)S(=O)(=O)Cc1ccccc1Cl (stereo not given)
Completion: > 100 µM (inactive)

Prompt: Next up: N#CC1(Cc2ccccc2)CCCCN1C(=O)c1ccccc1 (stereo not given)
Completion: > 100 µM (inactive)

Prompt: Can you handle CCOc1ccc(/C=N/[N+](C)(C)C)cc1OCC next?
Completion: > 10 µM (inactive)

====

system: RXF 393; test: NCI tumour cell line growth inhibition, 48 h
Active and inactive are the calls of the source. No stated cut-off is given here; in the data, active = GI50 up to about 1.1 µM and inactive = higher.
Measurement Label: GI50

CCOC(=O)c1cc2ncccc2c2ccccc12: > 100 µM (inactive)
Cc1ccc2c(ccc3c[n+]4ccccc4c(C)c32)c1.[O-][Cl+3]([O-])([O-])[O-]: 26.4 µM (inactive)
CC(=O)O[C@H]1CC[C@H]2[C@@H]3CCC4=C(C(=O)C=CC4(C)OC(C)=O)[C@H]3CC[C@]12C (stereo partly drawn): 32.1 µM (inactive)
Cc1ccc2sc3ccc(N)cc3c(=O)c2c1: 38.5 µM (inactive)
C#CCn1ncc2c(SC)ncnc21: > 100 µM (inactive)
Cc1ccc(SCC(CSCCO)OCn2cnc3c2N=C(N)NC32OCCO2)cc1 (stereo not drawn): > 100 µM (inactive)
CCOC(=O)c1nc2ccccc2nc1Oc1ccc(F)cc1: 46.8 µM (inactive)

Prompt: // query GI50 value for entry O=[N+]([O-])C1(CO)COC2(OC1)c1ccccc1-c1ccccc12
Completion: > 55.2 µM (inactive)

====

tested on: UACC-62; assay: NCI tumour cell line growth inhibition, 48 h
Activity calls are given as the source filed them. Cut-off read from the data, not from the text of the source: active = GI50 up to about 1.1 µM and inactive = higher.
Quick list: GI50 per entry.

Examples from the recorded data:
COc1nc(N)c(/N=C/C(OC(C)=O)C(OC(C)=O)C(COC(C)=O)OC(C)=O)c(=O)n1C (stereo not drawn): > 100 µM (inactive)
CN1CCN(C(=O)CCNC(=O)Cc2ccc(C(=O)c3ccccc3)cc2)CC1: > 100 µM (inactive)
O=[N+]([O-])C1(CO)COC2(OC1)c1ccccc1-c1ccccc12: > 100 µM (inactive)
Nc1nc(N)c(CCCCc2ccccc2)c(C=O)n1: 15.2 µM (inactive)
Cc1[nH]c(=O)nc(NCCNCCO)c1C(=O)Nc1c2ccccc2nc2ccccc12: > 100 µM (inactive)

Prompt: // fetch UACC-62 GI50 for C[N+]1(CCN[N+]2(C)CCCCC2)CCc2ccccc2C1 (stereo not drawn)
Completion: > 100 µM (inactive)

Prompt: Queued: O=c1[nH]c2ccccc2c(=O)c2cc3ccccc3cc12
Completion: 41.6 µM (inactive)

Prompt: CCOC(=O)NC(C(C(=O)OCC)C(=O)OCC)(C(F)(F)F)C(F)(F)F , same question.
Completion: > 100 µM (inactive)

Prompt: Subsequent entry: CC(=O)OCC1=CC2OC(=O)C3=COC(OC4OC(CO)C(O)C(O)C4O)C1C32 (stereo not drawn)
Completion: > 100 µM (inactive)

Prompt: Input CCn1c2ccccc2c(=O)c2c(OC)ccc(OC)c21
Completion: 43.6 µM (inactive)

Prompt: Can you check COc1cc(C(=O)CBr)c(OC)cc1C next?
Completion: 85.7 µM (inactive)

Prompt: How about this compound: CCN(CC)c1ccc2nc3ccc(/N=N/c4c(O)ccc5ccccc45)cc3[n+](-c3ccccc3)c2c1
Completion: > 100 µM (inactive)

Prompt: Now the compound Cc1ccc(S(=O)(=O)NC(=O)C2S(=O)(=O)OCCOS2(=O)=O)cc1
Completion: > 100 µM (inactive)
